Test system: MS2 coat protein
assay-summary: apparent KD of MS2 coat protein; higher = weaker reporter binding
protocol-conditions: Eterna round: R101; input ligand: none
assay-endpoint: apparent KD of MS2 coat protein (nM)
Answers are plain numbers, in nM.

Use these answered entries as a reference point.
• AGAGCUGCUCAGAAGGAGGAUCACCCUUUCGAAAGAAAUACGGAGGCUGAAAAGCCUCCGAAAUCCUAGGAUAUGAGCAGCUCA [#SharedSequence - IExNG2: 3] (puzzle (switch architecture): Inverted Exclusion NG 2) = 791
• CUAUAGAUAUGAGGAUAUGUAUAUCCAACAUGAGGAUCACCCAUGUUGAGGAUCACCCAUGUAAAGCAGAAGGCAUAUCUAUAG [#HighScoreProbStacks] (puzzle (switch architecture): Same State NG 2) = 21.5
• AAACUGCCACAUGAGGAUCACCCAUGUAAAUAAAGUAUUUGAAGAAGGGCGAUAGCAAAGCUAUCGCAGGAUAUUCUCAGGCAG [#GuReductionToAU - jl-sng2-2.35] (puzzle (switch architecture): Inverted Same State NG 3) = 43.7

Which apparent KD of MS2 coat protein value belongs to CGCUAUGACAUGAGGAUCACCCAUGUAUACAUGGGAAUGACGUAGGAUAUGCAGAAGAUUAAAGUGCAGAAGGACGGCUUUGCG [JR #DistanceClose #Static #NP SSNG3 Sub063] (puzzle (switch architecture): Same State NG 3) ?
433

----------
Tested on: MS2 coat protein
assay-summary: apparent KD of MS2 coat protein; higher = weaker reporter binding
protocol-conditions: Eterna round: R107; input ligand: arginine 13.2 mM
// label = 1 if apparent KD of MS2 coat protein is not less than 0.02 µM, otherwise 0

Worked examples, 5 sequences total:
• UGUGUCGUCUGAAGGAGCGGCUCUUGAUCCUCGUGAGACAUGAGGAUCACCCAUGUCUCGAGCCAGGUAGGUCGCAGGCGGCACA [#26 Exclusion - Arginine B] = 0
• GGAUAGGACAGAAGGAGCGUGAGAUGCAAAGCAUCAUUCCUCACAUGAGGAUCACCCAUGUCACAGGUAGGUCGCUGUCCUAUCG [ArgBX 4] = 1
• UUGUUGUUUGGAAGGAGCGUGGAUGAGUGAGAACAUGAGGAUCACCCAUGUUGUAUGAUACCGCAGGUAGGUCGCCGGGUGGUGG [11.aB] = 0
• AUCGUACCUGAUGAUACCAGCAUGUGAUCGUAACAUGAGGAUCACCCAUGUGAUCAGUGAUGCCCUUGGCAGCAUGAUCGGUACA [Same State - Theophylline B (Freestyle 15)] = 1
• UAGCGAUCUCGUUAAAGGAUCCCAUUUGAUACCAGAGAACUUUGCCUCCCUUGGCAGCAAGUGACAUGAGGAUCACCCAUGUUGA [theeternabot_exclusion_MS2_Theo_A_3] = 0

Now turn to the next sequence.
Test whether the sequence ACCGCAUCCGUAUAGGAUGCGGCCCAUGAAGGAGCGUGGGAAACCACAGGUAGGUCGCAUGGACAUGAGGAUCACCCAUGUUAUU [Inception] records apparent KD of MS2 coat protein of 0.02 µM or higher.
1

----------
System: K4 kissing-loop RNA reporter
assay-summary: apparent KD of K4 kissing-loop reporter; higher = weaker reporter binding
protocol-conditions: Eterna round: R107; input ligand: FMN 200 uM
assay-endpoint: apparent KD of K4 kissing-loop reporter (nM)
Answers are plain numbers, in nM.

Below is a list of sequences. For each, state its recorded apparent KD of K4 kissing-loop reporter.
1. GUAAGACCGGGACUCCAGUGAUGUUGGAGGCAGGAUAUCCAGUCGAGGAGAAGGGCCAGGGAUAUCGAGCUGCUCGGUUCGUAGU [Rerareatra]
2. AAGUGAUGUUGUAGUGAUGUUGUGAUGUUGCAGGAUAUAUAGUGAUGUAGAAGGGUAAGUACUUAUUUUUUUUUUGAGUGAUGUU [vcbczrmullin]
3. AUGUACACGAUAGUGUACUCCUAGUGAUGUUAGGAUAUGCAGAUAUGCAGAAGGAACAAGUCAUCUGACAAUAGUCGGAUGACAA [FmnAX 9 #OpenEnded #K4Early]
4. UGUCAUUGGUCGGCCGCCACUAGGACCGGGUUUUACCUAGUGAUGUUAGUAUGAACGGCCGCCACUAGGACCGGGACCGAUGACU [KL-SSTryp-B25 #DoubleAptamer]
5. GGUCGCCUGAGCAGUGAUGUUGCAAGGGAAGGAGCGCGUUUUUUCGCAGGUAGGUCGCCCAAAUAAUAAGUUAAACUAGGCGACC [4.)]
6. GGCACUUUUGCUUGGAACCGUCAAGCUCUAUAGGAUAUGCCGAAAGGCAGAAGGAUGGACCUACAGAGUGAUGUUCUGCGUGCCU

81.8
96.6
388
343
221
393

----------
Answer each item with its documented apparent KD of MS2 coat protein.
Test system: MS2 coat protein
assay-summary: apparent KD of MS2 coat protein; higher = weaker reporter binding
protocol-conditions: Eterna round: R107; input ligand: arginine 13.2 mM
Give bare numbers, in nM.

• GCACAAGAUGGAAGGAGCGCUGGUAUAAGUCACAUGAGGAUCACCCAUGUGCUCCUUGCCGAGCAGGUAGGUCGCCAUCUUGUGC [SSAB NP+V+V2 #5] = 22.3
• AAUGUAUGCCACAUGAGGAUCACCCAUGUGCGAGGACCGGUACGGCCGCCACUCGGUCGGUGGUUAAUGAAGAUAUACAAUAAUG [XTryp A #12] = 10.6
• CAGGUUAGGGCGGCCGCCACUGUGGCUACGGUACAUGAGGAUCACCCAUGUUUGUGGUUGAUCUACAGGACCGGGCCCUGACACG [Matidier] = 48.9
• GCUGUAAGUGCAGAUACCAGCAGGUGAUAUUUCAUAUGACAUGAGGAUCACCCAUGUAACUGCCCUUGGCAGCUGCACUUACAGC [SSTHB #9] = 172
• UUAUAUAUGCGAAGGAGCGGGAAAUAUAUAUAUAUAAUCCUAACAUGAGGAUCACCCAUGUCCCAGGUAGGUCGCGCAUAUAUAG [12.C] = 38

Batch lookup, apparent KD of MS2 coat protein per entry.
1. UCACGACGGAUGGAUACCAGCGACAUGAGGAUCACCCAUGUAUGAGGAUCAGCCAUGUUAUGCCCUUGGCAGCCACGAAGGUCAU [YYYMULLIN]
2. UGUAUGUGAUCUGAUACCAGUCCAACUGGUAAAAGAUGAGGAUCACCCAUCUAAAAUUGGGACCCUUGGCAGCAGAUCGCAUACU
3. CUAGAUGGAAACGUCUGGACGCACAAGCGACGAGGACCGGUACGGCCGCCACUCGAAGAGUGGUGGACAUGAGGAUCACCCAUGU [Design 4 MOD]
4. ACAUGAGGAUCACCCAUGUAAUACCGGGAAGGAGCGCGUAAGGACGCAGGUAGGUCGCUCGGCGUCCGGCCGCAAGGCCGGACGA [#1 Same State - Arginine A Attempt #12 (HarryS)]
5. AGAUUCGACACGGCCGCCACUCGUGACGGAUUUCCGAGUGUCGAACAUGAGGAUCACCCAUGUCCGAGGACCGGGUGUUGAGUCU [XTryp B #12]

[13.2, 91.7, 36.5, 21, 33.7]

Consider the following items and state reported apparent KD of MS2 coat protein for each.
1. AAAACCUCACCUGAGGAACACCCAGGUGAUACCAGCCUGGAAACAGGCCCUUGGCAGCACCAGGUCAUCAAAGAUGACCAAAUAA [TheoAX 25 #OpenEnded #AlternativeMS2]
2. CCCAACAUGAGGAUCACCCAUGUUCCGGGUCGAGGACCGGUACGGCCGCCACUCGGUAUGAUGGGUGUGCAGCGUAUCUGCACCA [theeternabot_sameState_MS2_Trp_A_22]

1: 17.5; 2: 30.9

----------
System: K4 kissing-loop RNA reporter;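 further: bound reporter read as fluorescence of individual clusters on recovered sequencing chips by microscopy, with normalized cluster intensities fitted with a binding model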
assay-summary: apparent KD of K4 kissing-loop reporter; higher = weaker reporter binding
protocol-conditions: Eterna round: R107; input ligand: tryptophan 2.4 mM
Lab note: anything with apparent KD of K4 kissing-loop reporter at or over 100 nM counts as True; the rest go in False.

Use these answered entries as a reference point.
• UCCGUUGCGGCGGCCGCCACUGACUUAUUGAUUAGGUUGCCAGUGAUGUUGGCCACCGGUCAAUACAGGACCGGGCCAUAGCGGG [Retive] = True
• UGACUGGAUGGAAGGAGCGCUAAACUCCUAGUGAUGUUAGGGACACGAGACAAAGUCUUGAGGCAGGUAGGUCGCCAUCUAGUCU [FiskerMod 8 - Jieux - Same State - Arginine B] = True
• GUUGAUCAUGGAAGGAGCGCCCAUUGUCGACACGAGUGAUGUUCGUGUCGUUGAUUACGAGGGCAGGUAGGUCGCCGUGUGCUUU [Rabele] = True
• AUUUAGACGAGUGAUGUUCGUGUUAAUACAGAGGAUAUGCGUGAUUGCAGAAGGCUGUAUUUAUAUAUGUUAUGUGGUUUUAAAA [whbob_Ex_FMNA__2th187] = False
• CCAUCGCUAUUCGAUACCAGUCAUCAAAUCUUUGGUUUGAUAAAGGAGUGAUGUUCCCAAGACCCUUGGCAGCGAAUAGUGAUGG [Theophylline B K4 10] = True

Can UUUGGAGUGGGAGGAUAUCCUAAUAUGGGUGAUGUUAGCGAUGUUGAAGGUGUAGUGAUGUUAUGCGGAGAAGGCCCAGUGUAGA [BDazzled - #18 - Exc. FMN B] be said to have apparent KD of K4 kissing-loop reporter at or above 100 nM?
True

API: above_or_equal(metric=apparent KD of K4 kissing-loop reporter, cutoff=100 nM) for item UAGACCUACUCAGGAUAUCCGCAGUGAUGUUGCGGUUGGCCUGAGCGACAUGAAAAUCUUACUAAAGGAGAAGGGAGAGGGUUAC [Ratiteus]
False

Could you verify whether the entry GUUUGGCGGACGGCCGCCACUCGGACGAGUCACAGUGAUGUUGUGGUUUGCCAGUCGACUUCAUCGAGGACCGGGUUUGUCGGGC [Exclusion Tryptophan B GF 20] shows apparent KD of K4 kissing-loop reporter of no less than 100 nM?
True

Origin of values: the supplement of paper PMC9170038
